experiment: Metabolic stability in liver microsome; type: in vitro ADME; details: liver microsomes; 0.5 mg/mL CD1 mouse liver microsome, 0.5 μM test compound, NADPH and UDPGA, 37° C.
outcome measure: half-life at 0.5 μM

Illustrative cases are given below, each with its answer.
>>> print(df.to_string())
                                   molecule      outcome_measure  assay_value
0  C[C@@H](COCc1cc2n(n1)CCN(c1ccc(C(F)(F)F)cn1)C2=O)Nc1cn[nH]c(=O)c1C(F)(F)F [Compound 11]  half-life at 0.5 μM     > 1.67 h
1  C[C@@H](COCc1nc2n(n1)CCN(c1ncc(C(F)(F)F)cn1)C2)Nc1cn[nH]c(=O)c1C(F)(F)F [Compound 9]  half-life at 0.5 μM      > 0.5 h
2  CC[C@@H](COCc1nc2n(n1)CCN(c1ncc(C(F)(F)F)cn1)C2)Nc1cn[nH]c(=O)c1C(F)(F)F [Compound 37]  half-life at 0.5 μM     > 1.67 h
3  C[C@@H](COCc1nc2n(n1)CCN(c1ccc(C(F)(F)F)cn1)C2)Nc1cn[nH]c(=O)c1C(F)(F)F [Compound 26]  half-life at 0.5 μM     > 1.67 h

query: State, in one line, measured half-life at 0.5 μM of C[C@@H](COCc1cc2n(n1)CCN(c1ncc(C(F)(F)F)cn1)C2)Nc1cn[nH]c(=O)c1C(F)(F)F [Compound 1]
result: > 0.5 h

###

target: PARP1 (Homo sapiens (Human))
Sequence (P09874 whole entry): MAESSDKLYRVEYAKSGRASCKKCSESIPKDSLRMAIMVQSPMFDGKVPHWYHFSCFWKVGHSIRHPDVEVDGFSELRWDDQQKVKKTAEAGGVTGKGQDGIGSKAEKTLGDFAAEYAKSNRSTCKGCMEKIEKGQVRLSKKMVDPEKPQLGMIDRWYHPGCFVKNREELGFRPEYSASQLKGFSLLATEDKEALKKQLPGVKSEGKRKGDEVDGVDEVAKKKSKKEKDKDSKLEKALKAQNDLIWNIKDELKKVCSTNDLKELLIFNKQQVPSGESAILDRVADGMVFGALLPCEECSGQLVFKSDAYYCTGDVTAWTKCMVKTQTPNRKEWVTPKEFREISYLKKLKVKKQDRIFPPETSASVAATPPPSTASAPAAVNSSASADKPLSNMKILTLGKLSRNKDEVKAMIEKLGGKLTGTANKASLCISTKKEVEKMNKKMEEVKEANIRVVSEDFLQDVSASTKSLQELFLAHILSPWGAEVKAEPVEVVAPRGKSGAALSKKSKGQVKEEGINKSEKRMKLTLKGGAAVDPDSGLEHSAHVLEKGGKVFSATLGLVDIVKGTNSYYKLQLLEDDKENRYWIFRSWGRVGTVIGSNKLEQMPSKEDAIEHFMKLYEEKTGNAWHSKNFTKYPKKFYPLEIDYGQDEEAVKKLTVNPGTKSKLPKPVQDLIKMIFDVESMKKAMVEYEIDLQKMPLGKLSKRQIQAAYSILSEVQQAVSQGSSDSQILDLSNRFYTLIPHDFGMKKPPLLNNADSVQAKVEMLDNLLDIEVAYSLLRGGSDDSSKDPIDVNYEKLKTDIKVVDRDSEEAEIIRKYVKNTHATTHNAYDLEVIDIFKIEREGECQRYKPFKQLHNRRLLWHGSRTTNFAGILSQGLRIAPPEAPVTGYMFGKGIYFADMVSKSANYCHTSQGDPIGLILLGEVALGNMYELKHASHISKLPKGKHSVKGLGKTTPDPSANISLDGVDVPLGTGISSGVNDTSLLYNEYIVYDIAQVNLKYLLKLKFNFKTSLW
pIC50: −log10 of the molar value.
outcome measure: pIC50

query: State, in one line, measured pIC50 of `C[C@@H](COCc1cc2n(n1)CCN(c1ncc(C(F)(F)F)cn1)C2)Nc1cn[nH]c(=O)c1C(F)(F)F`
result: < 6.00

###

biological target: UniProtKB O95271
Sequence (O95271 whole entry): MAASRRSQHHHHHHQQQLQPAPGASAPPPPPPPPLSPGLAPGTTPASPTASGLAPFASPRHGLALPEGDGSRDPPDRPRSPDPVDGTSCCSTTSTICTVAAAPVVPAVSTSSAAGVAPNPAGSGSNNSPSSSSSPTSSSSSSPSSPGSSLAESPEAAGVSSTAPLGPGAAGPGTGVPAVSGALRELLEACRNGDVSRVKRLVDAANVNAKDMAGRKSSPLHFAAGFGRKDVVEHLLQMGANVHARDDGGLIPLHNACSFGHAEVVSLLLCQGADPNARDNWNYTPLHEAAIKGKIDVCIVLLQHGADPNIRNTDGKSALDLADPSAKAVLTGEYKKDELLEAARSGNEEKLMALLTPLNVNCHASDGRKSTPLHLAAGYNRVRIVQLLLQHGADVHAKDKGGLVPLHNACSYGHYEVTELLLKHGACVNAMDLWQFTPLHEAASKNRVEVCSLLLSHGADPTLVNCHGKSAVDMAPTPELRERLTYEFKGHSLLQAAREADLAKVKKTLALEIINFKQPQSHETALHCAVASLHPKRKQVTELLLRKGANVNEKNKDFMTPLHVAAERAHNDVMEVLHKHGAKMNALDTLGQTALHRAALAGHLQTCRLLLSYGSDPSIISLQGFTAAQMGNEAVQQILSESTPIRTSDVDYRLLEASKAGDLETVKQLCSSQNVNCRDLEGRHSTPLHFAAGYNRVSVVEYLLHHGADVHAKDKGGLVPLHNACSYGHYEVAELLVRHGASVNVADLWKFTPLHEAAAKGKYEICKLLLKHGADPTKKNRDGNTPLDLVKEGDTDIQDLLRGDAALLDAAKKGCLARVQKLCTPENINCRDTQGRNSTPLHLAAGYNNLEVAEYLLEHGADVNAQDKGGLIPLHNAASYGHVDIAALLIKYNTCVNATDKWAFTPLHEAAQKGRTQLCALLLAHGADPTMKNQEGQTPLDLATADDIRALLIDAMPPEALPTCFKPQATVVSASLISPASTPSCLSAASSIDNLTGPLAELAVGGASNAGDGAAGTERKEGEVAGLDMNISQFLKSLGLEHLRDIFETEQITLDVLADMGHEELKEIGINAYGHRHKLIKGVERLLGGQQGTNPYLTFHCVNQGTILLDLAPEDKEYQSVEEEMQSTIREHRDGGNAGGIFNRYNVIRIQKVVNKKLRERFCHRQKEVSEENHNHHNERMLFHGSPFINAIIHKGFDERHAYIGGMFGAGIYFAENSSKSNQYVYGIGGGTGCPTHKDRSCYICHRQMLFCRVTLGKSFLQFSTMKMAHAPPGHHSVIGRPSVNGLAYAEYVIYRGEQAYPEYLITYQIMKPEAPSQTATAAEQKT
outcome measure: IC50

query: Enter IC50 (test system UniProtKB O95271) for C[C@@H](COCc1cc2n(n1)CCN(c1ncc(C(F)(F)F)cn1)C2)Nc1cn[nH]c(=O)c1C(F)(F)F [Compound 1]
result: > 10 µM

###

biological target: PARP14 (Homo sapiens (Human))
Sequence (Q460N5 whole entry): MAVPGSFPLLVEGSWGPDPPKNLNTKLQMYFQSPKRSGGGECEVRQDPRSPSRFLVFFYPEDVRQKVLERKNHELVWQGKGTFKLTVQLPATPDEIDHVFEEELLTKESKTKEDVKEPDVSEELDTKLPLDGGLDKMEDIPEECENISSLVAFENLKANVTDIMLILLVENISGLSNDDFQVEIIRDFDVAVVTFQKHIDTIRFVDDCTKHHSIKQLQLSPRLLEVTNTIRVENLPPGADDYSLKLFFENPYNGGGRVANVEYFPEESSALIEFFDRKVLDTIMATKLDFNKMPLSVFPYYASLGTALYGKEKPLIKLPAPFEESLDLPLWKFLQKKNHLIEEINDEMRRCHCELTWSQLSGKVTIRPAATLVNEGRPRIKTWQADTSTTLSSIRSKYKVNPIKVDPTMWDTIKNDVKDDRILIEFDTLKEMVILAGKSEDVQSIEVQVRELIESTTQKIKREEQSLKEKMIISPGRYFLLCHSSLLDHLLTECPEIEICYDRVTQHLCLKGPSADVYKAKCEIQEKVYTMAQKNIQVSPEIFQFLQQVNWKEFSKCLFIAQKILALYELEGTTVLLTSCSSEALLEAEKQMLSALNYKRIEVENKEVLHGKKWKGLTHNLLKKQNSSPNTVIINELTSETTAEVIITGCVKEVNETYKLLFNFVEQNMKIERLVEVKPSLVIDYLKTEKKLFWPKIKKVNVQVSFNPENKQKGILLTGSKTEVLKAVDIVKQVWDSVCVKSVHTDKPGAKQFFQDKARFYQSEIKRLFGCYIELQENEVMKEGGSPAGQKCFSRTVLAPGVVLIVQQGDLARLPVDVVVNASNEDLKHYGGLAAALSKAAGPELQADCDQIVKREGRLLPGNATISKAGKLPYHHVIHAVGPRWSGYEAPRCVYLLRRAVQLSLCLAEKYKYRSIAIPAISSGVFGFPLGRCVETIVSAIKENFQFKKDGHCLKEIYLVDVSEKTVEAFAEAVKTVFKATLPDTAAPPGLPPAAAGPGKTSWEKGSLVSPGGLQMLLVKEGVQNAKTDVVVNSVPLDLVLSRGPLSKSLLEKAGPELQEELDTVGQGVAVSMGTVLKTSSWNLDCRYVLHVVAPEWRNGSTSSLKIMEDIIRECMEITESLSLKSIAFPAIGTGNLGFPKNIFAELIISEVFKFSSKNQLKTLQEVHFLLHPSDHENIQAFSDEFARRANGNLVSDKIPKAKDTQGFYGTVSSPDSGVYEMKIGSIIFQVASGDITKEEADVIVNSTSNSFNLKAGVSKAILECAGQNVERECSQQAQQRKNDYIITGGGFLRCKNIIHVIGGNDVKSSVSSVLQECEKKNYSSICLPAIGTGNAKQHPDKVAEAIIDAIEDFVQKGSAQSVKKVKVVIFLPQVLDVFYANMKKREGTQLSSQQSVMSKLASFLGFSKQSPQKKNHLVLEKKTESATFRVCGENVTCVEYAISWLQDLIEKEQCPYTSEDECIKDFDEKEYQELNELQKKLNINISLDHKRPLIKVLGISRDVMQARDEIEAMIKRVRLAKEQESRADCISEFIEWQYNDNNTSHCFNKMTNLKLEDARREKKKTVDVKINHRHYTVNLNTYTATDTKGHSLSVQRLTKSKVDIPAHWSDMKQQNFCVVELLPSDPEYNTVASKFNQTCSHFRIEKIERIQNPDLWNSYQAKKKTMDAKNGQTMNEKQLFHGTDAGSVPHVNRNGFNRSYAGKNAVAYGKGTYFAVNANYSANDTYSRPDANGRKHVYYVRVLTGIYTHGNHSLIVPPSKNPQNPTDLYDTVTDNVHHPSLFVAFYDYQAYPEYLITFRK
outcome measure: IC50

query: State, in one line, measured IC50 of `C[C@@H](COCc1cc2n(n1)CCN(c1ncc(C(F)(F)F)cn1)C2)Nc1cn[nH]c(=O)c1C(F)(F)F`
result: > 10 µM

###

Below, each of the compounds is paired with its reported Papp B→A at 2 h, 1 μM value.
test system: MDR1; assay: MDCKII-MDR1 cell permeability assay; type: in vitro ADME; settings: dog, MDCK-MDR1, 1 μM test compound, basolateral to apical
Provide the reading as a plain figure in ×10⁻⁶ cm/s.

>>> print(df.to_string())
                            chemical_smiles  assay_value
0  C[C@@H](COCc1nn2c(c1Cl)CN(c1ncc(C(F)(F)F)cn1)CC2)Nc1cn[nH]c(=O)c1C(F)(F)F         14.8

# ---- query compound ----
query: State, in one line, measured Papp B→A at 2 h, 1 μM of `CSc1cnc(N2CCn3nc(COC[C@H](C)Nc4cn[nH]c(=O)c4C(F)(F)F)cc3C2)nc1`
result: 35.5

###

System: MDR1
Experiment: MDCKII-MDR1 cell permeability assay
Type: in vitro ADME
Details: dog, MDCK-MDR1, 1 μM test compound
Procedure: 50 μL of MDCKII-MDR1 cell suspension with a density of 1.56×10^6 cells/mL was seeded into a Transwell well of a 96-well plate, and the plate was cultured in a cell incubator at 37° C. in 5% CO2. […] After the incubation, samples were taken from the basolateral and apical respectively, and after centrifugation, the supernatant was subjected to LC-MS/MS analysis, and the apparent permeability coefficient (Papp) was calculated, the results of which are shown in Table 5.
outcome measure: efflux ratio at 2 h, 1 μM

In [3]: df
Out[3]:
                            chemical_smiles            outcome_measure  assay_value
0  CSc1cnc(N2CCn3nc(COC[C@H](C)Nc4cn[nH]c(=O)c4C(F)(F)F)cc3C2)nc1  efflux ratio at 2 h, 1 μM         4.09

query: State, in one line, measured efflux ratio at 2 h, 1 μM of `C[C@@H](COCc1nn2c(c1Cl)CN(c1ncc(C(F)(F)F)cn1)CC2)Nc1cn[nH]c(=O)c1C(F)(F)F`
result: 2.28

###

Below, each of the molecules is paired with its reported pIC50 value.
target: PARP7 (Homo sapiens (Human), UniProt Q7Z3E1)
Sequence (Q7Z3E1 whole entry): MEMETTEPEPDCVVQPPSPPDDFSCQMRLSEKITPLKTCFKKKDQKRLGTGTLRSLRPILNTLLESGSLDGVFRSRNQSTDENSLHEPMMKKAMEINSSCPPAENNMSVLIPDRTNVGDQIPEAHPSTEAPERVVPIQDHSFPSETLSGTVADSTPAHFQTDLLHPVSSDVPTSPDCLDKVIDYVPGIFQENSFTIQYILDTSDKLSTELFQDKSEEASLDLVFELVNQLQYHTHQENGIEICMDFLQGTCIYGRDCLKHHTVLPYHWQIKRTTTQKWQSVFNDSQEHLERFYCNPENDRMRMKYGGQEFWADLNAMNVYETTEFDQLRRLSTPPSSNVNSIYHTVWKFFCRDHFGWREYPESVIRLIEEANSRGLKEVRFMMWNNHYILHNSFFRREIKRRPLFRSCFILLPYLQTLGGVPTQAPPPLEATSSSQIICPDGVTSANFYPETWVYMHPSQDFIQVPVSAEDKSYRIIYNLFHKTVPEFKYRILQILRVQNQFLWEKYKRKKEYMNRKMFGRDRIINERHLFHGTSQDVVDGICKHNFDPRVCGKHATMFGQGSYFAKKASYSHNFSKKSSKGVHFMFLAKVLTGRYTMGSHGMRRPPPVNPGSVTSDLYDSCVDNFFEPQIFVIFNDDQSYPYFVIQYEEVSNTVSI
pIC50: −log10 of the molar value.

query: Enter pIC50 (test system PARP7 (Homo sapiens (Human), UniProt Q7Z3E1)) for C[C@@H](COCc1nc2n(n1)CCN(c1ncc(C(F)(F)F)cn1)C2)Nc1cn[nH]c(=O)c1C(F)(F)F [Compound 9]
result: 7.30 to 8.00

query: Enter pIC50 (test system PARP7 (Homo sapiens (Human), UniProt Q7Z3E1)) for [2H]C([2H])(OC[C@H](C)Nc1cn[nH]c(=O)c1C(F)(F)F)c1cc2n(n1)CCN(c1cnc(C(F)(F)F)cn1)C2([2H])[2H] [Compound 21]
result: > 8.00

query: Enter pIC50 (test system PARP7 (Homo sapiens (Human), UniProt Q7Z3E1)) for C[C@H](OC[C@H](C)Nc1cn[nH]c(=O)c1C(F)(F)F)c1cc2n(n1)CCN(c1ncc(C(F)(F)F)cn1)C2 [Compound 3-I]
result: > 8.00

query: Enter pIC50 (test system PARP7 (Homo sapiens (Human), UniProt Q7Z3E1)) for C[C@@H](CO[C@H](C)c1cc2n(n1)CCN(c1ncc(C(F)(F)F)cn1)C2)Nc1cn[nH]c(=O)c1C(F)(F)F [Compound 3-II]
result: 7.00 to 7.30

query: Enter pIC50 (test system PARP7 (Homo sapiens (Human), UniProt Q7Z3E1)) for C[C@@H](COCc1cc2n(n1)CCN(c1ncc(C(F)(F)F)cn1)C2)Nc1cn[nH]c(=O)c1C(F)(F)F [Compound 1]
result: 7.30 to 8.00

query: Enter pIC50 (test system PARP7 (Homo sapiens (Human), UniProt Q7Z3E1)) for C[C@@H](COCc1cc2n(n1)CCN(c1cnc(C(F)(F)F)cn1)C2)Nc1cn[nH]c(=O)c1C(F)(F)F [Compound 5]
result: > 8.00

query: Enter pIC50 (test system PARP7 (Homo sapiens (Human), UniProt Q7Z3E1)) for C[C@@H](COCc1nn2c(c1Cl)CN(c1ncc(C(F)(F)F)cn1)CC2)Nc1cn[nH]c(=O)c1C(F)(F)F [Compound 13]
result: 7.30 to 8.00
